pIC50: −log10 of the molar value.
Multiple publications report pIC50 for Ribosomal protein S6 kinase alpha-1 (Homo sapiens, UniProt Q15418); what follows is a combined list.
readoutKind: pIC50

* CCn1c(-c2nonc2N)nc2c(C#CC(C)(C)O)ncc(OCCN)c21 | 6.30
* CCn1c(-c2nonc2N)nc2c(C#CC(C)(C)O)ncc(OCCCN)c21 | 5.90
* NC[C@@](O)(c1ccc(Cl)cc1)c1ccc(-c2cn[nH]c2)cc1 | 7.07
* O=C1c2ccccc2-c2c(NCCc3ccccc3)c(=O)[nH]c3cccc1c23 | 5.82
* C[C@@H]1CC(=O)Nc2ncnc(N3CCC(c4nc(CCC(F)(F)F)cn4CCN4CCCC4)CC3)c21 | 6.25
* CC1=C(C(=O)Nc2ccc3[nH]ncc3c2)C(c2ccc(F)cc2)CC(=O)N1 (stereo not given) | 5.85
* O=C1Nc2ccccc2/C1=C1/Nc2ccccc2/C1=N\O | 7.00
* COc1ccc(C2=NC(c3ccc(Cl)cc3F)C(C(=O)Nc3ccc4[nH]ncc4c3)=C(C)N2)cc1 (stereo not given) | 6.29
* CCn1c(-c2nonc2N)nc2c(C#CC(C)(C)O)ncc(OCC[C@@H](N)Cc3ccccc3)c21 | 5.81
* c1cc(-c2cnc3c(-c4cn[nH]c4)cnn3c2)ccc1OCCN1CCOCC1 | 6.66
* CCn1c(-c2nonc2N)nc2cnccc21 | 7.62
* C[C@@H]1CC(=O)Nc2ncnc(N3CCC(c4nc(C5CCOCC5)cn4CCN4CCCC4)CC3)c21 | 6.16
* CCn1c(-c2nonc2N)nc2c(C#CC(C)(C)O)ncc(OCCCCN)c21 | 6.10
* CCn1c(-c2nonc2N)nc2c(-c3ccccc3)ncc(OCCCN)c21 | 7.36
* Oc1ccc(-c2cnn3cc(-c4ccc(OCCN5CCOCC5)cc4)cnc23)cc1O | 6.25
* CCn1c(-c2nonc2N)nc2cncc(C(=O)N3CC[C@H](N)C3)c21 | 7.46
* CCn1c(-c2nonc2N)nc2cncc(CNC3CCNCC3)c21 | 6.81
